Value source: patent US8268848B2

Target: OX1 (Homo sapiens)
Experiment: Measurement of orexin receptor-binding ability ([125I]-OX-A, cell membranes, OX1)
Parameters: expressed in transfected cells; host or cells: CHO cells (membrane preparation)
pIC50: −log10 of the molar value.
Measured pIC50 of individual entries
quantity-kind: pIC50

In [3]: df
Out[3]:
                                   compound  recorded_number
0  COc1cccc(C2(COc3cnc(C)nc3C)CC2C(=O)Nc2ccc(Cl)cn2)c1 (stereo not shown) [Example 185]             7.62
1  Cc1ncc(OC[C@@]2(c3ccccc3F)C[C@H]2C(=O)Nc2ccc(F)cn2)c(C)n1 [Example 263]             7.09
2  Cc1ncc(OC[C@@]2(c3ccc(O)c(F)c3)C[C@H]2C(=O)Nc2ccc(F)cn2)c(C)n1 [Example 321]             7.70
3  CCc1nc(C)ncc1OC[C@@]1(c2cccc(F)c2)C[C@H]1C(=O)Nc1ccc(Cl)cn1 [Example 243]             8.70

----------
Tested on: mice (C57BL/6NCrlCrLj)
Test: Sleep experiment (EEG/EMG) in mice
Format: in vivo
Conditions: mice, oral administration, 10 mg/kg, difference to vehicle day, 3 hours
Outcome: fulfilled for Sleep extended time 10 mg/kg (min/3 hrs) of at least 20 min/3 hrs; not fulfilled for anything lower.

                                   compound  assigned_class
0  CCc1nc(C)ncc1OC[C@@]1(c2ccccc2)C[C@H]1C(=O)Nc1ccc(F)cn1 [Example 119]   not fulfilled
1  Cc1ncc(OC[C@@]2(c3cccc(F)c3)C[C@H]2C(=O)Nc2ccc(C#N)cn2)c(C)n1 [Example 96]   not fulfilled
2  Cc1ncc(OC[C@@]2(c3ccccc3F)C[C@H]2C(=O)Nc2ccc(F)cn2)c(C)n1 [Example 263]       fulfilled
3  Cc1ncc(OC[C@@]2(c3cccc(F)c3)C[C@H]2C(=O)Nc2cc(C)c(F)cn2)c(C)n1 [Example 82]       fulfilled
4  Cc1ncc(OC[C@@]2(c3ccccc3)C[C@H]2C(=O)Nc2ccc(F)cn2)c(C)n1 [Example 1]   not fulfilled

----------
Target: OX2 (Homo sapiens, UniProt O43614)
Sequence (O43614 1-444): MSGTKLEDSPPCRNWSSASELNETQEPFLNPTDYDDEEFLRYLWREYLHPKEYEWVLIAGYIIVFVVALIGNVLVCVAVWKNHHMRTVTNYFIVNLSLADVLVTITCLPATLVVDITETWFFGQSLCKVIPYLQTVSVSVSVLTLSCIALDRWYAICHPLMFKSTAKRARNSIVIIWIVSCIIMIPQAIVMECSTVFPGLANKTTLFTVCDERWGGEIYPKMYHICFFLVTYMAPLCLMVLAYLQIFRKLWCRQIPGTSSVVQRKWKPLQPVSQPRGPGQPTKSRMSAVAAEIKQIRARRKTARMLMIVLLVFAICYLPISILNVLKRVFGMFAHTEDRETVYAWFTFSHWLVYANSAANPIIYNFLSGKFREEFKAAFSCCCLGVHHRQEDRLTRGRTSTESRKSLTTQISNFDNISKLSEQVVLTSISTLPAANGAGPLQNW
Experiment: Measurement of orexin receptor-binding ability ([125I]-OX-A, cell membranes, OX2)
Parameters: expressed in transfected cells; host or cells: CHO cells (membrane preparation)
Conditions: OX2 (IC50) nM, membranes of recombinant CHO cells expressing OX2, 0.2 nM [125I]-OX-A
quantity-kind: IC50

                                   compound  quantity_kind  result
0  Cc1ncc(OC[C@@]2(c3cc(F)cc(F)c3)C[C@H]2C(=O)Nc2ccc(F)cn2)c(C)n1 [Example 133]           IC50    3 nM
1  Cc1ncc(OCC2(c3cccc(F)c3)CC2C(=O)Nc2cccnc2)c(C)n1 (stereo not shown) [Example 99]           IC50   58 nM
2  COCc1cc(NC(=O)[C@@H]2C[C@@]2(COc2cnc(C)nc2C)c2ccc(F)cc2)ncc1F [Example 109]           IC50  5.8 nM
3  Cc1ncc(OC[C@@]2(c3cc(F)cc(F)c3)C[C@H]2C(=O)Nc2ccccn2)c(C)n1 [Example 131]           IC50    5 nM

----------
Target: OX1 (Homo sapiens, UniProt O43613)
Sequence (O43613 1-425): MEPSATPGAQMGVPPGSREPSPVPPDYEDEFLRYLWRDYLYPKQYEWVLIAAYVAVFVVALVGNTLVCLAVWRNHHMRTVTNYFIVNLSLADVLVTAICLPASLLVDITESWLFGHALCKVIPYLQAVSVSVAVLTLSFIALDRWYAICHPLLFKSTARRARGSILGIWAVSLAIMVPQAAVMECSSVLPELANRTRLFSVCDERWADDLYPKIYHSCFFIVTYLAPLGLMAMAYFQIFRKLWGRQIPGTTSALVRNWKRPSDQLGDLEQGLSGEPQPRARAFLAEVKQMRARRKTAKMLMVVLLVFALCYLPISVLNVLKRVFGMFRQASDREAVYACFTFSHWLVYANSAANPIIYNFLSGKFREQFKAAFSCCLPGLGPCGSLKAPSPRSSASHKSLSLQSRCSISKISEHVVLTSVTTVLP
Assay: Measurement of orexin receptor-binding ability ([125I]-OX-A, cell membranes, OX1)
Design: expressed in transfected cells; host or cells: CHO cells (membrane preparation)
Conditions: membranes of recombinant CHO cells expressing OX1, 0.2 nM [125I]-OX-A; read-out: OX1 (IC50)
pIC50: −log10 of the molar value.
We begin with a simple list: items and their reported pIC50.
quantity-kind: pIC50

                                   compound  recorded_number
0  Cc1ncc(OC[C@@]2(c3ccc(F)cc3)C[C@H]2C(=O)Nc2cc(C)c(F)cn2)c(C)n1 [Example 111]             7.47
1  Cc1ncc(OC[C@@]2(c3ccccc3)C[C@H]2C(=O)Nc2cc(F)cc(F)c2)c(C)n1 [Example 31]             6.65
2  Cc1ncc(OC[C@@]2(c3cc(F)cc(F)c3)C[C@H]2C(=O)Nc2cc(C)c(F)cn2)c(C)n1 [Example 129]             9.00
3  Cc1ncc(OC[C@@]2(c3ccccc3)C[C@H]2C(=O)Nc2ccccn2)c(C)n1 [Example 65]             5.99
4  CCc1nc(C)ncc1OC[C@@]1(c2cccc(F)c2)C[C@H]1C(=O)Nc1cc(C)c(F)cn1 [Example 244]             8.52
5  Cc1ncc(OC[C@@]2(c3ccccc3)C[C@H]2C(=O)Nc2ccc3c(c2)NC(=O)CO3)c(C)n1 [Example 23]             5.77
6  CCc1nc(C)ncc1OC[C@@]1(c2ccccc2)C[C@H]1C(=O)Nc1ccc(F)cc1 [Example 318]             6.87
7  CCc1ncc(OC[C@@]2(c3ccccc3)C[C@H]2C(=O)Nc2ccc(Cl)cn2)c(C)n1 [Example 128]             6.64

----------
Target: UniProt:O43613
Experiment: Measurement of antagonism (PLAP assay), OX1
Type: cell-based
Design: expressed in transfected cells; host or cells: HEK-293 cells, expression vector pBabeCLIH
quantity-kind: Ki (nM)

In [3]: df
Out[3]:
                                   molecule  experimental_system  cmp  recorded_number
0  Cc1ncc(OC[C@@]2(c3ccccc3)C[C@H]2C(=O)Nc2cc(C)c(F)cn2)c(C)n1 [Example 51]       UniProt:O43613    =               29
1  Cc1ncc(OC[C@@]2(c3cccc(F)c3)C[C@H]2C(=O)Nc2ccc(F)cn2)c(C)n1 [Example 95]       UniProt:O43613    =              9.9
2  CCc1nc(C)ncc1OC[C@@]1(c2cccc(F)c2)C[C@H]1C(=O)Nc1ccccn1 [Example 240]       UniProt:O43613    =               18
3  Cc1ncc(OC[C@@]2(c3ccccc3F)C[C@H]2C(=O)Nc2ccc(F)cn2)c(C)n1 [Example 263]       UniProt:O43613    =              193
4  Cc1ncc(OC[C@@]2(c3ccccc3)C[C@H]2C(=O)Nc2ccncc2)c(C)n1 [Example 67]       UniProt:O43613    >              667

----------
Target: OX2 (Homo sapiens)
Assay: Measurement of orexin receptor-binding ability ([125I]-OX-A, cell membranes, OX2)
Parameters: expressed in transfected cells; host or cells: CHO cells (membrane preparation)
Conditions: membranes of recombinant CHO cells expressing OX2, 0.2 nM [125I]-OX-A; read-out: OX2 (IC50)
One threshold, 7 nM, splits the recorded IC50 values: lower ones are 1 (yes), equal or higher ones are 0 (no).

>>> df
                                   molecule  assigned_class
0  Cc1ncc(OCC2(c3cccc(C(F)(F)F)c3)CC2C(=O)Nc2ccc(C#N)cn2)c(C)n1 (centres unmarked) [Example 264]          0 (no)
1  Cc1ncc(OCC2(c3cccc(C(F)(F)F)c3)CC2C(=O)Nc2cccnc2)c(C)n1 (centres unmarked) [Example 277]          0 (no)
2  COc1cc(F)cc(C2(COc3cnc(C)nc3C)CC2C(=O)Nc2ccccn2)c1 (centres unmarked) [Example 251]          0 (no)
3  COCc1nc(C)ncc1OC[C@@]1(c2cc(F)cc(F)c2)C[C@H]1C(=O)Nc1ccc(F)cc1 [Example 219]         1 (yes)
4  Cc1ncc(OC[C@@]2(c3ccccc3)C[C@H]2C(=O)Nc2ccc(F)c(Cl)c2)c(C)n1 [Example 32]         1 (yes)
5  COCc1nc(C)ncc1OC[C@@]1(c2cccc(F)c2)C[C@H]1C(=O)Nc1ccc(F)c(F)c1 [Example 194]         1 (yes)
6  Cc1ncc(OC[C@@]2(c3ccccc3)C[C@H]2C(=O)Nc2cccc(CCO)c2)c(C)n1 [Example 40]          0 (no)
